Entries and their koff values follow.
target: T1, recombinant human IL-36R extracellular domain expressed with a C-terminal myc-myc-hexahistidine tag (human, UniProt Q9HB29 20-337); assay: SPR (Biacore 4000), mAb captured on anti-human Fc, 37°C
T1 construct: also called hIL-36R-MMH; hIL-36R.mmH
T1 sequence (Q9HB29 other isoform, or with tags, fused parts or gaps limits assumed): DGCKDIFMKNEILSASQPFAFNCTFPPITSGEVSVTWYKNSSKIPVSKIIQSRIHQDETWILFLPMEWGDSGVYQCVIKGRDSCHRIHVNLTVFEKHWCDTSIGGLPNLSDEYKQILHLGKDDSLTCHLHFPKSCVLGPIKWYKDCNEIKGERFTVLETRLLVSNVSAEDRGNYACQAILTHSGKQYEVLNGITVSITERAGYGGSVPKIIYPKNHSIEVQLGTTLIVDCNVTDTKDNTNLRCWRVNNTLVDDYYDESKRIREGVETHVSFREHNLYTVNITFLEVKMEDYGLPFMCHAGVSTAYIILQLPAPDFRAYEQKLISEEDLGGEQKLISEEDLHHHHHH
Give the value, in units of s⁻¹, as a plain number.

binder	unit_annotation	readout_number
H4H14700P2 (antibody, human IgG4 S228P, kappa, V domains shown) VH: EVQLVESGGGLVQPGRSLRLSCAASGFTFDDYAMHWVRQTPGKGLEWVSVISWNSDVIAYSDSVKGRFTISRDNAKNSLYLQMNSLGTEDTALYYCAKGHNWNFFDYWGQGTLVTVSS VL: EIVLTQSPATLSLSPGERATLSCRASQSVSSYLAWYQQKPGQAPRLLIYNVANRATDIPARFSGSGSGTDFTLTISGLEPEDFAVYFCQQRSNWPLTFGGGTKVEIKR	s⁻¹	0.00184
H4H14757P (antibody, human IgG4 S228P, kappa, V domains shown) VH: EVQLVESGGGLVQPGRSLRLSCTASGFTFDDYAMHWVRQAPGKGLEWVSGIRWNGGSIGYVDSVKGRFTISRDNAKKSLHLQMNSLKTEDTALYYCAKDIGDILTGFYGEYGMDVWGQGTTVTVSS VL: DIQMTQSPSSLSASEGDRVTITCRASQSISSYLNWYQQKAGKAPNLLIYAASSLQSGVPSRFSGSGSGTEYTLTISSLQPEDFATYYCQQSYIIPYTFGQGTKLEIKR	s⁻¹	0.00109

Here's the next entry for you.
Query: Need koff of H4H14706P2 (antibody, human IgG4 S228P, kappa, V domains shown) VH: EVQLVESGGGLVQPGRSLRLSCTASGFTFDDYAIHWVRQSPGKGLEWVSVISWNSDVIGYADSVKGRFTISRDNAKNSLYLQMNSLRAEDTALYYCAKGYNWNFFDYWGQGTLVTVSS VL: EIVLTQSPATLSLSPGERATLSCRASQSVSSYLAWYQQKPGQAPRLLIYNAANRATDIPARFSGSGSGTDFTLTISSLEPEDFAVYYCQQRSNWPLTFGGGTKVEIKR , thanks.
Result: 0.0013
